# assay.target: SHP2 (Homo sapiens, UniProt Q06124)
# Sequence (Q06124 224-528): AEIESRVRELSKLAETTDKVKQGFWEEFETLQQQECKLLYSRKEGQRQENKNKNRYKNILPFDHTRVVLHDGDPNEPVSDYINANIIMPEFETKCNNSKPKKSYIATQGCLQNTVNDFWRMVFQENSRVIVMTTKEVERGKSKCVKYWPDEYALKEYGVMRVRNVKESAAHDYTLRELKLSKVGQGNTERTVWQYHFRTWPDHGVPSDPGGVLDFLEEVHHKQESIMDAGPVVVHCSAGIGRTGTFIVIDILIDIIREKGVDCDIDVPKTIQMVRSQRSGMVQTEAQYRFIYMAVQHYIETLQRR
# assay.protocol: SHP2 phosphatase inhibition assay (pNPP)
# Assay type: biochemical
# conditions.used: incubated with SHP2 for 30 minutes prior to addition of pNPP; read-out: IC50 SHP2, inhibitor pre-mixed with SHP2
quantity.measured: IC50 (µM)
# unit: µM | format: bare number

QUERY: Name the recorded IC50 of the item NC(=O)c1cc[n+](CC2=C(C(=O)O)N3C(=O)[C@@H](NC(=O)[C@@H](c4ccccc4)S(=O)(=O)[O-])[C@H]3SC2)cc1 [Cefsulodin, reference compound] in your answer.
RESULT: 16.8

* * *

# assay.target: SHP2 (Homo sapiens)
# assay.protocol: SHP2 phosphatase inhibition assay (pNPP)
# Format: biochemical
# conditions.used: pNPP at Km, pH 7.0, 25° C.; read-out: IC50 SHP2
Listing of recorded pIC50 by entry.
pIC50 here: minus log base 10 of the concentration, concentration in moles per litre.

The examples below pair each entry with its known result.
O=C(Nc1cccc(Cc2ccccc2)c1)C(=O)Nc1cccc(NC(=O)C(c2ccccc2)S(=O)(=O)O)c1 (stereo not shown): 5.00
O=C(O)c1ccc2nc(NC(=O)C(c3ccccc3)S(=O)(=O)O)sc2c1 (stereo not shown): 4.08

# input for lookup
QUERY: Name the recorded pIC50 of the item O=C(Nc1ccc(NC(=O)C(c2ccccc2)S(=O)(=O)O)cc1)C(=O)Nc1ccc(-c2cccs2)cc1 (stereo not shown) in your answer.
RESULT: 6.05

* * *

# assay.target: MKP3 (Homo sapiens, UniProt Q16828)
# Sequence (Q16828 1-381): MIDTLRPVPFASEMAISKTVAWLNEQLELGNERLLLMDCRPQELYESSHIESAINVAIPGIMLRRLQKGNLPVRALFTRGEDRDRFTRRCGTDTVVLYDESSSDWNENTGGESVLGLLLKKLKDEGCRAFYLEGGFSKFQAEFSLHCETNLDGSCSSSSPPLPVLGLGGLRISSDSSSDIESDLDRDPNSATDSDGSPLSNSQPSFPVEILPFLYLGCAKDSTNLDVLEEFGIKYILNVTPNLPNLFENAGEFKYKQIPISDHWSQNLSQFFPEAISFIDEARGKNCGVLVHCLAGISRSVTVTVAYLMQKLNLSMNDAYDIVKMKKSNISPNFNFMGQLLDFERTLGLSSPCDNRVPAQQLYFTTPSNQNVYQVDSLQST
pIC50: −log10 of the molar value.
quantity.measured: pIC50

The examples below pair each entry with its known result.
O=C(CS(=O)(=O)O)Nc1ccc2nc(C(F)(F)F)[nH]c2c1: < 4.00
O=C(C(c1ccccc1)S(=O)(=O)O)N1CCC(Cc2ccccc2)CC1 (stereo not drawn): < 3.70
O=C(C(c1ccccc1)S(=O)(=O)O)N1CCC(c2ccc(Cl)c(Cl)c2)CC1 (stereo not drawn): < 3.70
O=C(Nc1cccc(OCc2ccccc2)c1)C(c1ccccc1)S(=O)(=O)O (stereo not drawn): < 3.70
O=C(CS(=O)(=O)O)Nc1cnc2ccccc2c1: < 4.00

QUERY: Name the recorded pIC50 of the item O=C(Nc1nc2ccccc2s1)C(c1ccccc1)S(=O)(=O)O (stereo not drawn) in your answer.
RESULT: < 3.70

QUERY: Name the recorded pIC50 of the item O=C(Nc1ccc2nc(C(F)(F)F)[nH]c2c1)C(c1ccccc1)S(=O)(=O)O (stereo not drawn) in your answer.
RESULT: < 3.70

QUERY: Name the recorded pIC50 of the item O=C(C(c1ccccc1)S(=O)(=O)O)N1CCCC2CCCCC21 (stereo not drawn) in your answer.
RESULT: < 3.70

QUERY: Name the recorded pIC50 of the item O=C(CS(=O)(=O)O)Nc1nc2ccccc2s1 in your answer.
RESULT: < 4.00

QUERY: Name the recorded pIC50 of the item O=C(CS(=O)(=O)O)Nc1nc2ccc([N+](=O)[O-])cc2s1 in your answer.
RESULT: < 4.00

QUERY: Name the recorded pIC50 of the item O=C(Nc1ccc(N2CCOCC2)cc1)C(c1ccccc1)S(=O)(=O)O (stereo not drawn) in your answer.
RESULT: < 3.70

QUERY: Name the recorded pIC50 of the item O=C(Nc1cnc2ccccc2c1)C(c1ccccc1)S(=O)(=O)O (stereo not drawn) in your answer.
RESULT: < 3.70

* * *

# assay.target: mPTPA (Mycobacterium tuberculosis)
# Sequence (P9WIA1 whole entry): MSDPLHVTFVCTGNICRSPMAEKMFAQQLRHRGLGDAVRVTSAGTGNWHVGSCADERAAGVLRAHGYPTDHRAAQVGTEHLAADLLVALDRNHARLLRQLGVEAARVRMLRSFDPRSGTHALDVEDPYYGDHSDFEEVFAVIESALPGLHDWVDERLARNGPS
# assay.protocol: biochemical
# conditions.used: IC50 mPTPA
Listing of recorded IC50 by entry.
# unit: nM | format: bare number

O=C(CS(=O)(=O)O)Nc1ccc2nc(C(F)(F)F)[nH]c2c1: 650

QUERY: Name the recorded IC50 of the item O=C(CS(=O)(=O)O)Nc1nc2ccccc2s1 in your answer.
RESULT: 263

QUERY: Name the recorded IC50 of the item O=C(Nc1nc2ccccc2s1)C(c1ccccc1)S(=O)(=O)O (stereo not shown) in your answer.
RESULT: 194

QUERY: Name the recorded IC50 of the item O=C(Nc1ccc(N2CCOCC2)cc1)C(c1ccccc1)S(=O)(=O)O (stereo not shown) in your answer.
RESULT: 250

QUERY: Name the recorded IC50 of the item Cc1c(Br)cc(NC(=O)CS(=O)(=O)O)cc1Br in your answer.
RESULT: 160

QUERY: Name the recorded IC50 of the item Cc1c(Br)cc(NC(=O)C(c2ccccc2)S(=O)(=O)O)cc1Br (stereo not shown) in your answer.
RESULT: 196

QUERY: Name the recorded IC50 of the item O=C(CS(=O)(=O)O)Nc1ccc(N2CCOCC2)cc1 in your answer.
RESULT: 2200

QUERY: Name the recorded IC50 of the item O=C(CS(=O)(=O)O)Nc1cnc2ccccc2c1 in your answer.
RESULT: 3000

QUERY: Name the recorded IC50 of the item O=C(C(c1ccccc1)S(=O)(=O)O)N1CCC(c2ccc(Cl)c(Cl)c2)CC1 (stereo not shown) in your answer.
RESULT: 11300

* * *

# assay.target: HePTP (Homo sapiens, UniProt P35236)
# Sequence (P35236 whole entry): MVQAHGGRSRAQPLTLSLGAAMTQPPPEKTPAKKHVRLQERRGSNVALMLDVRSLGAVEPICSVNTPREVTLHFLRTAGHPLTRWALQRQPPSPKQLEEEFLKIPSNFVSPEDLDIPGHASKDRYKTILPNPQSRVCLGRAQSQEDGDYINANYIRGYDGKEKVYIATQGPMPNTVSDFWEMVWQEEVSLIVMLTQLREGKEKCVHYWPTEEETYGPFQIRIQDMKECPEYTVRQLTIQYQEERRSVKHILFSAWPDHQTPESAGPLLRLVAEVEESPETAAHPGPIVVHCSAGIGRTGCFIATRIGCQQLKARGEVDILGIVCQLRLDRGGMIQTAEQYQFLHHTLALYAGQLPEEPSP
# assay.protocol: PTP inhibition assay (pNPP)
# Assay type: biochemical
# conditions.used: […]; HePTP
pIC50: −log10 of the molar value.
Would you please tag the item YES when its pIC50 is 5 or above, and NO when it is below?

O=C(Nc1ccc(N2CCOCC2)cc1)C(c1ccc2ccccc2c1)S(=O)(=O)O (centres unmarked): YES
O=C(NNc1ccccc1)C(c1ccc(-c2ccccc2)cc1)S(=O)(=O)O (centres unmarked): NO
O=C(Nc1ccc(N2CCOCC2)cc1)C(c1ccc(Br)cc1)S(=O)(=O)O (centres unmarked): YES
O=C(NNc1ccccc1)C(c1ccc([N+](=O)[O-])cc1)S(=O)(=O)O (centres unmarked): NO

QUERY: hey, is pIC50 for this one >= 5? O=C(Nc1nc2ccccc2s1)C(Br)(c1ccccc1)S(=O)(=O)O (centres unmarked)
RESULT: YES

QUERY: hey, is pIC50 for this one >= 5? CC(C)CCNC(=O)C(c1ccc2ccccc2c1)S(=O)(=O)O (centres unmarked)
RESULT: NO

QUERY: hey, is pIC50 for this one >= 5? O=C(Nc1ccc(Br)c2ccccc12)C(c1ccc(-c2ccccc2)cc1)S(=O)(=O)O (centres unmarked)
RESULT: NO

* * *

# assay.target: SHP2/R362A (Homo sapiens, UniProt Q06124, R362A)
# Sequence (Q06124 224-528 R362A): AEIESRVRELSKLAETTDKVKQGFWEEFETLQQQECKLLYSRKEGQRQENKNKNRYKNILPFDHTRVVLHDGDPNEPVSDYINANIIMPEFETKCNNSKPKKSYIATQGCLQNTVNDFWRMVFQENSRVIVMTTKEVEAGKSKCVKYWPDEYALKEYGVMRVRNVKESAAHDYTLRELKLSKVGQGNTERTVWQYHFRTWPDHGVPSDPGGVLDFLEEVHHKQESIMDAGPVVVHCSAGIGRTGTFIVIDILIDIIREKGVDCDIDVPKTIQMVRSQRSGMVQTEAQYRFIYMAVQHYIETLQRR
# assay.protocol: SHP2 mutant inhibition assay (pNPP)
# conditions.used: pNPP, pH 7.0
quantity.measured: pIC50
pIC50 here: minus log base 10 of the concentration, concentration in moles per litre.

QUERY: Find the measured pIC50 of NC(=O)c1cc[n+](CC2=C(C(=O)O)N3C(=O)[C@@H](NC(=O)[C@@H](c4ccccc4)S(=O)(=O)[O-])[C@H]3SC2)cc1 [Cefsulodin, reference compound] with SHP2/R362A (Homo sapiens, UniProt Q06124, R362A) as test system.
RESULT: 4.33

* * *

Listing of recorded pIC50 by entry.
# assay.target: CD45 (Homo sapiens, UniProt P08575)
# Sequence (P08575 26-1306): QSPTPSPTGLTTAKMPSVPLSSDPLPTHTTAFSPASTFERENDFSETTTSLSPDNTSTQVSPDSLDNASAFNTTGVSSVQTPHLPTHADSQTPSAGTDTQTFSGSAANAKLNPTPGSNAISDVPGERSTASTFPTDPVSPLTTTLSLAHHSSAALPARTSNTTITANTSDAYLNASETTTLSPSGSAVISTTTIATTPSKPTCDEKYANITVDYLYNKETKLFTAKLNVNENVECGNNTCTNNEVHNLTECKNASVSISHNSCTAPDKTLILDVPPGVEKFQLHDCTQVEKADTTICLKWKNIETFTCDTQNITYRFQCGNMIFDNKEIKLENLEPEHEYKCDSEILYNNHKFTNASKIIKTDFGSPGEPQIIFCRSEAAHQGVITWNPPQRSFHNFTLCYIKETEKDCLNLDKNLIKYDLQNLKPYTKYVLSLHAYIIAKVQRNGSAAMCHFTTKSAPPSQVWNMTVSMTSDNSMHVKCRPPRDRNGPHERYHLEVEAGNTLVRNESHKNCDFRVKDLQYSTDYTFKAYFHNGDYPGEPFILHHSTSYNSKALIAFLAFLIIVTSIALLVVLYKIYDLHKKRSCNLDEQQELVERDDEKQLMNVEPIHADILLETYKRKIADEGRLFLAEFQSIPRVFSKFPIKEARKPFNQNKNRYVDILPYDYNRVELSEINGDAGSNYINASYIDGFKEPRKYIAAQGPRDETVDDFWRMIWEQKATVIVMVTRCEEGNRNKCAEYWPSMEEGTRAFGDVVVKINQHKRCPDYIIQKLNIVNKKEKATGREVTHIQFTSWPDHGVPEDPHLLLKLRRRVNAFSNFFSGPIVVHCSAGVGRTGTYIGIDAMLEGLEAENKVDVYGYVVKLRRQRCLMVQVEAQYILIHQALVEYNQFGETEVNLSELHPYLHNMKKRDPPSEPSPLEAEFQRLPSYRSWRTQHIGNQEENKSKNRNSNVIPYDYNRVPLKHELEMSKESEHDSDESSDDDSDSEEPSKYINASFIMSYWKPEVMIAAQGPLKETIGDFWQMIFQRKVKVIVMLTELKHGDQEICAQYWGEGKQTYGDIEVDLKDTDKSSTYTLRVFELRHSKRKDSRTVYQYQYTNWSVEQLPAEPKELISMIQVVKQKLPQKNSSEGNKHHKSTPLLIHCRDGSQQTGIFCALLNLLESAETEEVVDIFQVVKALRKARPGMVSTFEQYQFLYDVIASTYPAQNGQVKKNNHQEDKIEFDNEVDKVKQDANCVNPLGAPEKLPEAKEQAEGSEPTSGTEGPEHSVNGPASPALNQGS
pIC50: −log10 of the molar value.

QUERY: Name the recorded pIC50 of the item O=C(Nc1nc2ccc(O[N+](=O)[O-])cc2s1)C(c1ccccc1)S(=O)(=O)O (stereo not drawn) in your answer.
RESULT: < 3.70

QUERY: Name the recorded pIC50 of the item COc1cccc2sc(NC(=O)C(c3ccccc3)S(=O)(=O)O)nc12 (stereo not drawn) in your answer.
RESULT: < 3.70

QUERY: Name the recorded pIC50 of the item Cc1cc2nc(NC(=O)C(c3ccccc3)S(=O)(=O)O)sc2cc1C (stereo not drawn) in your answer.
RESULT: < 3.70

QUERY: Name the recorded pIC50 of the item COc1ccc2nc(NC(=O)C(c3ccccc3)S(=O)(=O)O)sc2c1 (stereo not drawn) in your answer.
RESULT: < 3.70

QUERY: Name the recorded pIC50 of the item CCOC(=O)c1ccc2nc(NC(=O)C(c3ccccc3)S(=O)(=O)O)sc2c1 (stereo not drawn) in your answer.
RESULT: 4.15
